# system under test: T1, human APRIL protein (human, UniProt O75888 105-250, limits assumed)
# T1 construct: Bought protein; also called recombinant APRIL protein
# T1 sequence (looked up): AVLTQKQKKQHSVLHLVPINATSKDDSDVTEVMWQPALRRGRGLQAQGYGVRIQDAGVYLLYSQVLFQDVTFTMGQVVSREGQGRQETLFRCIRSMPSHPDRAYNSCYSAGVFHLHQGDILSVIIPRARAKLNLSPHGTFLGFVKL
# test details: ELISA, coated APRIL; antibody 66.7 nM
Examples of binders with documented OD450 nm follow.
quantity kind: OD450 nm

INSERT INTO measurements (binder, test_value) VALUES
  ('L9G7 (antibody, human IgG1, V domains shown) VH: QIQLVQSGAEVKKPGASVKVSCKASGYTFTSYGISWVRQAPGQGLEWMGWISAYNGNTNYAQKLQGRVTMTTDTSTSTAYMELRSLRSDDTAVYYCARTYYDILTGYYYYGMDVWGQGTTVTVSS VL: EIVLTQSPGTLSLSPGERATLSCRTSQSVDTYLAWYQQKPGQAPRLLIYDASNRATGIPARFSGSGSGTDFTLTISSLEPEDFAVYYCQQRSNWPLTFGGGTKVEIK', 0.276),
  ('111D10D6G3 (antibody, V domains shown, Mouse hybridoma antibody purified on Protein G) VH: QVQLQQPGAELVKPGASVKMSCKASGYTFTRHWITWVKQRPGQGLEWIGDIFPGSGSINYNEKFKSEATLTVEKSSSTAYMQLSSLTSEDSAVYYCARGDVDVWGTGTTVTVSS VL: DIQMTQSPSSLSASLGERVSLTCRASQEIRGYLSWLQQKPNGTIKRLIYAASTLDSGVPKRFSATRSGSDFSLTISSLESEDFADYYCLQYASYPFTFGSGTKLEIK', 0.0681),
  ('97E7B3F2 (antibody, V domains shown) VH: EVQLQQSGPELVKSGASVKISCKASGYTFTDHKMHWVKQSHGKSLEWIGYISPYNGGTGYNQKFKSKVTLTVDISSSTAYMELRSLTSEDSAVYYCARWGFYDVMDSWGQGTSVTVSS VL: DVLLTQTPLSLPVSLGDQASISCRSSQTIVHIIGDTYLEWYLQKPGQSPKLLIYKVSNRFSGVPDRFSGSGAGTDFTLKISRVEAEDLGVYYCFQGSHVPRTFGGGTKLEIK', 0.62);
